Data provenance: paper PMC12648313

Biological target: FAM-CRE DNA
Experiment: FP DNA binding, CREB1
Settings: pH 7.4
endpoint: Kd (nM)
One number for each entry, in nM.

Query block: // fetch FAM-CRE DNA Kd for CREB1: CREB1 bZIP domain spans from Ala283 to Asp341 (ARKREVRLMKNREAARECRRKKKEYVKCLENRVAVLENQNKTLIEELKALKDLYCHKSD)
Result block: 156
